Molecular target: T1, 4H932-bN
T1 chain: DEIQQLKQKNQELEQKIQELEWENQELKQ
Experiment: two-hybrid library CCNG1;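 also: natural log of median RNA to DNA barcode read ratio; higher means stronger binding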
parameter: interaction score

The examples below pair each entry with its known result.
Which interaction score is listed for DEIQQLEQKIQELKQENQELKWKIQELEQ [4H349-bN] ?
-0.258

Which interaction score is listed for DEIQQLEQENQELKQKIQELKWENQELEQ [4H235-bN] ?
-0.682

Which interaction score is listed for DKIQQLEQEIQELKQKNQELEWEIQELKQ [4H2162-bN] ?
-0.305

Which interaction score is listed for DKIQQLKQKNQELKQKIQELEWEIQELEQ [4H3041-bN] ?
-1.42

Which interaction score is listed for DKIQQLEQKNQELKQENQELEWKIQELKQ [4H2518-bN] ?
-0.482

***
Which interaction score is listed for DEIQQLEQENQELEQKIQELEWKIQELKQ [4H166-bN] ?
-0.134

Which interaction score is listed for DKNQQLEQKIQELEQKIQELEWENQELKQ [4H3364-bN] ?
-1.67
